target: Steroid 17-alpha-hydroxylase/17,20 lyase (Homo sapiens, UniProt P05093); assay: Inhibition of human Cytochrome P450 steroid 17-alpha-hydroxylase/17,20 lyase at 0.8 uM
Sequence (P05093 whole entry): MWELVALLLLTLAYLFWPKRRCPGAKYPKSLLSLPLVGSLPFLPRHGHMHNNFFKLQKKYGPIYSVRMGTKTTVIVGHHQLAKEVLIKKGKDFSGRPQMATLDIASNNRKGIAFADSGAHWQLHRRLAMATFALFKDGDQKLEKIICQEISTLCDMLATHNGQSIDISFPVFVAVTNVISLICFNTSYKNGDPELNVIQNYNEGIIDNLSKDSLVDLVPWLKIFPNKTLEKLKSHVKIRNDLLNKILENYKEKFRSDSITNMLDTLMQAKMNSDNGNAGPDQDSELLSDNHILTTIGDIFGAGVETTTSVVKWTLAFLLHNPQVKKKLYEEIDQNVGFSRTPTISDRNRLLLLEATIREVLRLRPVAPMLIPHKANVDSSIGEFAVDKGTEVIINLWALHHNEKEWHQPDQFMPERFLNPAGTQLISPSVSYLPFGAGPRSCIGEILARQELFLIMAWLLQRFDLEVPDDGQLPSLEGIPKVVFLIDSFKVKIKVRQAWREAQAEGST
recorded.endpoint: inhibition at 0.8 µM (%)

[[record]]
compound = "C[C@]12CCC3C(CC=C4C[C@@H](O)[C@H]5COC[C@]43C5)C1CC[C@@H]2OC1CC1 (some centres undefined)"
assayed_system = "Steroid 17-alpha-hydroxylase/17,20 lyase (Homo sapiens, UniProt P05093)"
recorded_endpoint = "inhibition at 0.8 µM"
recorded_measurement = 0

[[record]]
compound = "CC1(C)C2=CCC3C(CC[C@@]4(C)C3CC[C@@H]4OC3CC3)[C@@]2(C)CC[C@@H]1O (some centres undefined)"
assayed_system = "Steroid 17-alpha-hydroxylase/17,20 lyase (Homo sapiens, UniProt P05093)"
recorded_endpoint = "inhibition at 0.8 µM"
recorded_measurement = 0

[[record]]
compound = "C[C@]12CC[C@H](O)CC1=CCC1C2CC[C@@]2(C)C1CC[C@@H]2OC1CC1 (some centres undefined)"
assayed_system = "Steroid 17-alpha-hydroxylase/17,20 lyase (Homo sapiens, UniProt P05093)"
recorded_endpoint = "inhibition at 0.8 µM"
recorded_measurement = 11

[[record]]
compound = "C[C@]12CCC3C(CCC4=CC(=O)[C@H]5COC[C@]43C5)C1CC[C@@H]2OC1CC1 (some centres undefined)"
assayed_system = "Steroid 17-alpha-hydroxylase/17,20 lyase (Homo sapiens, UniProt P05093)"
recorded_endpoint = "inhibition at 0.8 µM"
recorded_measurement = 1


====

target: Steroid 17-alpha-hydroxylase/17,20 lyase (Homo sapiens, UniProt P05093); experiment: Inhibition of human Cytochrome P450 steroid 17-alpha-hydroxylase/17,20 lyase at 0.8 uM pre-incubation time 30 minutes
recorded.endpoint: inhibition at 0.8 µM (%)

[[record]]
compound = "C[C@]12CCC3C(CCC4=CC(=O)[C@H]5COC[C@]43C5)C1CC[C@@H]2OC1CC1 (some centres undefined)"
recorded_endpoint = "inhibition at 0.8 µM"
units_of_measure = "%"
recorded_measurement = 17

[[record]]
compound = "C[C@]12CCC3C(CC=C4C[C@@H](O)[C@H]5COC[C@]43C5)C1CC[C@@H]2OC1CC1 (some centres undefined)"
recorded_endpoint = "inhibition at 0.8 µM"
units_of_measure = "%"
recorded_measurement = 0

[[record]]
compound = "C[C@]12CC[C@H](O)CC1=CCC1C2CC[C@@]2(C)C1CC[C@@H]2OC1CC1 (some centres undefined)"
recorded_endpoint = "inhibition at 0.8 µM"
units_of_measure = "%"
recorded_measurement = 64

[[record]]
compound = "CC1(C)C2=CCC3C(CC[C@@]4(C)C3CC[C@@H]4OC3CC3)[C@@]2(C)CC[C@@H]1O (some centres undefined)"
recorded_endpoint = "inhibition at 0.8 µM"
units_of_measure = "%"
recorded_measurement = 0

